Data credit: PubChem BioAssay

Test: binders of probe aFGF10 on microarray, primary screen, stem cell growth factor project, biochemical, small-molecule microarray, fluorescence 635/667 (AID 1071);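 note: score merges 667 nm spot intensity and signal to noise from triplicate slides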
Settings: higher = more signal
Response key: true means composite z-score >= 0.2; false means composite z-score < 0.2.

Below are worked cases with known answers.
[
  {
    "Compound": "C[C@@H]1CC[C@H]2C(=O)O[C@@H](COc3ccc(C(C)(C)C)cc3)CN2[C@@H]1c1ccc(Br)cc1",
    "Group": "false"
  },
  {
    "Compound": "CCOC(=O)[C@H](CC(C)C)NC(=O)CCC1CC(OC(=O)NCc2cccc3ccccc23)CC2(CCCC(COC(=O)NCc3ccncc3)O2)O1 (some centres not stated)",
    "Group": "true"
  },
  {
    "Compound": "C=CC[C@@H]1C=C[C@H](ON=C[C@@H](C)[C@H](OCc2ccccc2)C(C)C)[C@@H](CO)O1",
    "Group": "false"
  },
  {
    "Compound": "CC1O[C@H]2C3=C(C(=O)[C@@H]4O[C@@H]4[C@H]3O)[C@@H]1C1[C@@H](C)OC=C3[C@H](O)C4O[C@@H]4C(=NOCc4ccccc4)[C@]312 (some centres not stated)",
    "Group": "false"
  },
  {
    "Compound": "COc1ccc(COC(=O)NN=C2C[C@@H](O)[C@@H](O)[C@@H]3[C@@H]4C(=O)N(C5CCCCC5)C(=O)[C@@H]4CC[C@H]23)cc1",
    "Group": "false"
  }
]

Please examine the following record next.
Answer whether composite z-score of CC(=O)OC[C@H]1O[C@H](CCON=C2[C@H]3CCn4c(=O)n(-c5ccccc5)c(=O)n4[C@H]3[C@H](O)[C@@H]3O[C@H]23)C=C[C@@H]1OC(C)=O is greater than or equal to 0.2.
true
